# TARGET_SYSTEM: soluble HLA-DR1 (HLA-DR alpha truncated after Asn192 with a C-terminal nine amino acid HA epitope tail; HLA-DR1 beta truncated after Lys198), made in Baculovirus-infected insect cells (human)
# ASSAY_NOTES: release ELISA as Table 36 (biotin-hMBP(90-102) left on tethered HLA-DR1); AE peptide 64 uM, without unlabeled hMBP(90-102)
Non-standard residues stand in square brackets, D forms with d. Hyp = O=C(O)[C@@H]1C[C@@H](O)CN1
RECORDED_ENDPOINT: Relative Release (fraction of positive control o.d.)

- BINDER: "LRMKLPK (head-to-tail cyclization: the amino terminal amino group is coupled through an amide linkage to the carboxyl terminal group) [AE381]"
  ENDPOINT_VALUE: 0.5
- BINDER: "YRMKLPKSAK [AE108]"
  ENDPOINT_VALUE: 0.31
- BINDER: "Ac-LRLKLPK-NH2 [AE206]"
  ENDPOINT_VALUE: 0.08
- BINDER: "Ac-LRMKYPK-NH2 [AE235]"
  ENDPOINT_VALUE: 0.81
- BINDER: "Ac-YRMKL[Hyp]KSAK-NH2 (SMILES CSCC[C@H](NC(=O)[C@H](CCCNC(=N)N)NC(=O)[C@H](Cc1ccc(O)cc1)NC(C)=O)C(=O)N[C@@H](CCCCN)C(=O)N[C@@H](CC(C)C)C(=O)N1C[C@H](O)C[C@H]1C(=O)N[C@@H](CCCCN)C(=O)N[C@@H](CO)C(=O)N[C@@H](C)C(=O)N[C@@H](CCCCN)C(N)=O) [AE143]"
  ENDPOINT_VALUE: 0.58
